Tested on: DeltatarO mutant
measurementProtocol: S. aureus survival, RN4220 and DeltatarO strains – OD600, teichoic acid synthesis inhibitors, primary screen (AID 463173)
conditionDescription: S. aureus RN4220 wild type/DeltatarO growth, OD600, 18 h, screened at 18.75 µg/mL (by protocol)
Screen size: about 52,000 compounds; about 4,300 (8.3%) were called active. Rule as the data show it: active = survival mostly below about 52% (no sharp cut-off); inactive = mostly above about 56%. The list comes from a sample in which actives are over-represented; it also holds close analogues and randomly drawn compounds.
In this exercise, the only acceptable responses are Y = active, N = inactive

Asked: Record lookup: outcome of this test for `Cc1c(Cl)cccc1NC(=O)c1ccc(C(=O)Nc2cccc(Cl)c2C)cc1` ?
Given back: N

Asked: Record lookup: outcome of this test for `Cc1nc2ccn(Cc3cccs3)c(=O)c2cc1C(=O)N1CCN(c2ccccc2)CC1` ?
Given back: N

Asked: Record lookup: outcome of this test for `CCCn1cnc2cc(NCc3ccc(OC)cc3OC)ccc21` ?
Given back: N

Asked: Record lookup: outcome of this test for `COC(=O)c1cc(-c2cc(OC)c(OC)c(OC)c2)no1` ?
Given back: N

Asked: Record lookup: outcome of this test for `CCCn1cnc2cc(NCc3ccccc3OCC)ccc21` ?
Given back: Y

Asked: Record lookup: outcome of this test for `COc1cccc(CNc2ccc3c(c2)ncn3C)c1OC` ?
Given back: N

Asked: Record lookup: outcome of this test for CCC(O)c1nc2ccccc2n1CCOc1cc(C)cc(C)c1 (stereo unspecified) ?
Given back: N

Asked: Record lookup: outcome of this test for CCC(=O)OC1CSc2nc3ccccc3n2C1 (stereo unspecified) ?
Given back: N

Asked: Record lookup: outcome of this test for `Cc1nc2cc(-c3ccccc3)nn2c(C)c1CCC(=O)Nc1ccc(F)cc1F` ?
Given back: N

Asked: Record lookup: outcome of this test for `COc1ccc(NC(=O)c2c(C)oc3ccc(O)c(CN4CCN(Cc5ccccc5)CC4)c23)cc1` ?
Given back: N

Asked: Record lookup: outcome of this test for `CCOc1ccc(NCc2nc3ccccc3n2CCOc2ccc(C)cc2)cc1` ?
Given back: Y

* * *

Test system: DeltatarO mutant
measurementProtocol: S. aureus survival, RN4220 and DeltatarO strains – OD600, teichoic acid synthesis inhibitors, primary screen (AID 463173)
conditionDescription: S. aureus RN4220 wild type/DeltatarO growth, OD600, 18 h, screened at 18.75 µg/mL (by protocol)
Out of some 52,000 compounds screened, about 4,300 (8.3%) were called active. No stated cut-off is given here; in the data, active means survival mostly below about 52% (no sharp cut-off); inactive means mostly above about 56%. This excerpt belongs to a sample that is enriched for actives.
In this exercise, the only acceptable responses are active, inactive

Asked: Record lookup: outcome of this test for COc1ccc(C2CC(c3c(O)n(C4CCCCC4)c(=O)[nH]c3=O)=Nc3ccccc3S2)cc1 (stereo not given) ?
Given back: inactive

Asked: Record lookup: outcome of this test for CC(C)c1ccc(OCC(O)CN2CCN(c3ccc(F)cc3)CC2)cc1 (stereo not given) ?
Given back: inactive

Asked: Record lookup: outcome of this test for `CCOc1ccccc1NC(=O)c1ccc2c(c1)CCCN2S(C)(=O)=O` ?
Given back: inactive

Asked: Record lookup: outcome of this test for `CCOC(=O)c1c(C)[nH]c(C)c1S(=O)(=O)N1CCC(C(=O)Nc2ccc(OCC)cc2)CC1` ?
Given back: active

Asked: Record lookup: outcome of this test for `Cc1ccc(NC(=O)CSc2nc3ccccc3c(=O)n2CCC(=O)NC2CCCCC2)cc1C` ?
Given back: inactive

Asked: Record lookup: outcome of this test for `CC(=O)NC1CCN(C(=O)Nc2ccccc2)CC1` ?
Given back: inactive

Asked: Record lookup: outcome of this test for `O=C(Nc1cc(C(F)(F)F)ccc1Cl)c1ccc2c(c1)CCN2S(=O)(=O)c1ccccc1` ?
Given back: inactive

Asked: Record lookup: outcome of this test for Cc1nc2nc(SCC(=O)NC3CCC(C)CC3)nn2c(C)c1Cc1ccccc1 (stereo not given) ?
Given back: inactive

Asked: Record lookup: outcome of this test for `Nc1nonc1-c1nc2ccccc2n1CC(=O)Nc1cccc(Cl)c1Cl` ?
Given back: inactive

Asked: Record lookup: outcome of this test for `CCOc1ccc2c(c1)c(=O)c(C(=O)c1ccccc1)cn2Cc1ccccc1` ?
Given back: inactive

Asked: Record lookup: outcome of this test for `CCOC(=O)c1ccccc1NC(=O)N1CCC(CN2CCCCC2)CC1` ?
Given back: inactive

Asked: Record lookup: outcome of this test for O=C(NCc1ccco1)C(c1cccs1)N(C(=O)C1COc2ccccc2O1)c1cccc(O)c1 (stereo not given) ?
Given back: inactive

Asked: Record lookup: outcome of this test for `Cc1ccc2c(c1)nnn2C1CCN(CC(=O)N(c2ccccc2)c2ccccc2)CC1` ?
Given back: inactive

Asked: Record lookup: outcome of this test for CCC(C)C(NC(=O)c1cc(C)oc1C)C(=O)O (stereo not given) ?
Given back: inactive

Asked: Record lookup: outcome of this test for `CCOC(=O)c1c(C)[nH]c(C)c1S(=O)(=O)N1CCC(C(=O)NCc2ccc(C)cc2)CC1` ?
Given back: inactive

Asked: Record lookup: outcome of this test for `Cc1ccc(NC(=O)CSc2nc3nccnc3c(=O)n2CCc2c[nH]c3ccccc23)cc1C` ?
Given back: active

Asked: Record lookup: outcome of this test for `Nc1nonc1-c1nc2ccccc2n1CCn1c(-c2nonc2N)nc2ccccc21` ?
Given back: inactive

Asked: Record lookup: outcome of this test for `CCc1ccccc1Nc1cc(C(=O)NCc2ccc(C)cc2)c2ccccc2n1` ?
Given back: inactive

Asked: Record lookup: outcome of this test for `CCN(CC)C(=O)C1=CC(c2ccc3c(c2)OCO3)=NS(=O)(=O)N1C` ?
Given back: inactive

Asked: Record lookup: outcome of this test for `O=C(c1ccco1)N1CCN(Cc2cccc(Br)c2)CC1` ?
Given back: inactive

Asked: Record lookup: outcome of this test for `CCOC(=O)c1c(C)[nH]c(C)c1S(=O)(=O)N1CCC(C(=O)Nc2ccc(C)c(Cl)c2)CC1` ?
Given back: inactive

Asked: Record lookup: outcome of this test for `COc1cccc(NC(=O)c2cn(C3CCCCC3)c(=O)c3c2c2ccccc2n3C)c1` ?
Given back: inactive

Asked: Record lookup: outcome of this test for `CCOC(=O)c1c(C)[nH]c(C)c1S(=O)(=O)N1CCC(C(=O)NCc2ccc(F)cc2)CC1` ?
Given back: active

Asked: Record lookup: outcome of this test for Cc1ccc(Cc2c(C)nc3nc(SCC(=O)NC4CCC(C)CC4)nn3c2C)cc1 (stereo not given) ?
Given back: inactive

Asked: Record lookup: outcome of this test for `Cc1nc2nc(SCC(=O)NC3CCCCC3)nn2c(C)c1Cc1ccccc1Cl` ?
Given back: active

Asked: Record lookup: outcome of this test for `Cc1ccc(S(=O)(=O)c2cn(C)c3cc(N4CCN(c5ccccc5)CC4)c(F)cc3c2=O)cc1` ?
Given back: inactive

Asked: Record lookup: outcome of this test for `Cc1ccc(S(=O)(=O)N2CCc3cc(C(=O)Nc4ccc(C(F)(F)F)cc4)ccc32)cc1` ?
Given back: inactive

Asked: Record lookup: outcome of this test for `Cc1cc(C)cc(NC(=O)CSc2nc3ncccc3[nH]2)c1` ?
Given back: inactive

Asked: Record lookup: outcome of this test for `COCCCNC(=O)CSc1nc2nc(C)c(Cc3ccccc3Cl)c(C)n2n1` ?
Given back: inactive

Asked: Record lookup: outcome of this test for `CC(=O)N1CCc2c(sc3c2c(=O)n(-c2ccccc2)c(=O)n3CC(=O)Nc2ccccc2C)C1` ?
Given back: inactive

Asked: Record lookup: outcome of this test for `CCOC(=O)c1c(C)[nH]c(C)c1S(=O)(=O)N1CCC(C(=O)NCc2ccccc2)CC1` ?
Given back: inactive

Asked: Record lookup: outcome of this test for COc1ccc(OC)c(CCNC(=O)C2=C(C)C(=O)OC23CCC(C)CC3)c1 (stereo not given) ?
Given back: inactive

Asked: Record lookup: outcome of this test for `Cc1ccc(NC(=O)CSc2nc3c(sc4ccccc43)c(=O)n2CCCC(=O)NC2CCCC2)cc1C` ?
Given back: inactive

Asked: Record lookup: outcome of this test for `CCOC(=O)C1=C(SCC)c2cc3c(n2C1=O)CCCC3` ?
Given back: inactive

Asked: Record lookup: outcome of this test for `COC(=O)c1c(NC(=O)c2cc(=O)c3ccc(C)c(C)c3o2)sc2c1CCCC2` ?
Given back: inactive

Asked: Record lookup: outcome of this test for `CS(=O)(=O)N1CCc2cc(C(=O)Nc3ccc(C(F)(F)F)cc3)ccc21` ?
Given back: inactive

Asked: Record lookup: outcome of this test for `Cc1cccc(Cc2c(C)nc3nc(SCC(=O)NC4CCCCC4)nn3c2C)c1` ?
Given back: active

Asked: Record lookup: outcome of this test for `COc1cc(NC(=O)CSc2nc3nc(C)c(Cc4ccccc4Cl)c(C)n3n2)cc(OC)c1` ?
Given back: inactive

Asked: Record lookup: outcome of this test for `CS(=O)(=O)N1CCc2cc(C(=O)Nc3ccc(Cl)c(C(F)(F)F)c3)ccc21` ?
Given back: active

Asked: Record lookup: outcome of this test for Cc1nc2nc(SCC(=O)NC3CCC(C)CC3)nn2c(C)c1Cc1ccccc1Cl (stereo not given) ?
Given back: inactive

Measured values drawn from PubChem BioAssay AID463173 for this set.
